Experiment: Half life was evaluated in rat
Format: ADME, organism-based
Conditions: in vivo
measured-metric: half-life (h)
Numeric only. Scale: h

Reference set (3 entries):
O=C(O)[C@@H](CC1CCC1)N1C[C@H](CN2CCC(CCCc3ccccc3)CC2)[C@@H](c2cccc(F)c2)C1 ... 3.4
N#Cc1ccc(CCCC2CCN(C[C@H]3CN([C@H](CC4CCC4)C(=O)O)C[C@@H]3c3cccc(F)c3)CC2)cc1 ... 1
O=C(O)[C@@H](CC1CCC1)N1CC(CN2CCC(CCC(F)(F)c3ccc(F)cc3)CC2)[C@@H](c2cccc(F)c2)C1 (single isomer, unassigned) ... 3.1

The recorded half-life for entry O=C(O)[C@@H](CC1CC1)N1C[C@H](CN2CCC(CCC(O)c3ccc(F)cc3)CC2)[C@@H](c2cccc(F)c2)C1 (stereo partly drawn) equals 0.9

The recorded half-life for entry O=C(O)[C@@H](CC1CC1)N1CC(CN2CCC(CCC(F)(F)c3ccc(F)cc3)CC2)[C@@H](c2cccc(F)c2)C1 (single isomer, unassigned) equals 7.5

The recorded half-life for entry CC(O)(CCC1CCN(C[C@H]2CN([C@H](CC3CC3)C(=O)O)C[C@@H]2c2cccc(F)c2)CC1)c1ccc(F)cc1 (stereo partly drawn) equals 1.6

The recorded half-life for entry `O=C(O)[C@@H](CC1CCC1)N1C[C@H](CN2CCC(CCS(=O)(=O)c3ccc(F)cc3)CC2)[C@@H](c2cccc(F)c2)C1` equals 0.8

The recorded half-life for entry `O=C(O)[C@@H](CC1CCC1)N1C[C@H](CN2CCC(CCCc3ccc(F)cc3)CC2)[C@@H](c2cccc(F)c2)C1` equals 3.4
